# System: UO-31
# assay-procedure: NCI tumour cell line growth inhibition, 48 h
The source made the active and inactive calls. No stated cut-off is given here; in the data, active = GI50 up to about 1.1 µM and inactive = higher.
Hello, when you answer, please use one of the following outcomes: YES = active, NO = inactive

Input line: Called result for O=C1CC(c2ccco2)C2(C(=O)NC(=O)NC2=O)C(c2ccco2)C1 (stereo not given)
Output line: NO

Input line: I'd appreciate the recorded outcome for COc1cccc2c1C(=O)c1c(O)c3c(c(O)c1C2=O)CC(O)(C(O)CO)CC3OC1CC2C(OC3COCC(C#N)N32)C(C)O1 (stereo not given) from this test.
Output line: YES

Input line: Entry `O=C(Cc1nc2ccccc2o1)C(=O)Nc1cccc(C(F)(F)F)c1` : call = ?
Output line: NO

Input line: Which outcome was assigned to `COc1ccc(/N=C2/C(=N/c3ccc(OC)cc3)N(c3ccccc3)C(=S)N2N=C=C2Sc3ccccc3N2C)cc1` in this test?
Output line: NO

Input line: How did this test come out for `CCO[C@]12CCC[C@H]1[C@@H]1C(=O)c3ccccc3C(=O)C1=C(C)O2` ?
Output line: NO

Input line: Check the results log: what was the call for CN/N=C(\C)C(CN1CCCCC1)C(C1=C(O)c2ccccc2OC1)c1ccccc1 (stereo not given) ?
Output line: NO

Input line: Short answer needed: outcome of this test for `O=C(C/C(=N/O)C(F)(F)F)c1cccs1` ?
Output line: NO

Input line: Can you look up the reported call for `O=C(O)CSCC(=O)Nc1ccc2cccc3c2c1CC3` for me?
Output line: NO

Input line: In this assay, the call recorded for `NNC(=O)c1cc([N+](=O)[O-])ccc1NC(=O)C12CC3CC(CC(C3)C1)C2` was what?
Output line: NO

Input line: Can you look up the reported call for `COc1cc(Cn2c3c(c4cc(O)ccc42)Cc2ccccc2C3=O)cc(OC)c1` for me?
Output line: NO

====

# Tested on: 786-0
# assay-procedure: NCI tumour cell line growth inhibition, 48 h
The source made the active and inactive calls. Rule as the data show it: active = GI50 up to about 1.1 µM and inactive = higher.
For each of the compounds below, state its GI50.

Input line: // query GI50 value for entry `CC1(C)[C@@H]2CC[C@@]1(C)CN(CCC[N+](C)(C)C)C2`
Output line: > 100 µM (inactive)

Input line: State the recorded GI50 for this entry: `O=C(O)CCNC(=O)c1cc(N(CCBr)CCBr)c([N+](=O)[O-])cc1[N+](=O)[O-]`
Output line: > 100 µM (inactive)

Input line: Which GI50 is listed for CC(=O)NC(CCCN(Cc1ccccc1)C(=O)NCCCl)C(=O)NCc1ccccc1 (stereo unspecified) ?
Output line: > 100 µM (inactive)

Input line: Need GI50, item c1ccc2[nH]c(-c3cscn3)nc2c1 [THIABENDAZOLE]
Output line: > 100 µM (inactive)

Input line: Given the compound Cc1ccc([S+](c2ccccc2)c2cc(C)ccc2C)cc1 (stereo unspecified) , what is its reported GI50?
Output line: 35.2 µM (inactive)

Input line: Find the recorded GI50 belonging to CC1(C)c2ccccc2N2O[C@@H]3C(=O)N(c4ccccc4)C(=O)[C@@H]3C21c1ccccc1 (stereo partly specified) and report it.
Output line: > 100 µM (inactive)

Input line: Look up GI50 for this compound: `Cc1cc(Cl)ccc1OCC(=O)Oc1c(Cl)c(Cl)c(Cl)c(Cl)c1Cl`
Output line: 29.4 µM (inactive)

Input line: What measured GI50 goes with C=CCNC(=O)N(CCCC(NC(C)=O)C(=O)NCc1ccccc1)Cc1ccccc1 (stereo unspecified) ?
Output line: > 100 µM (inactive)

Input line: Give the measured GI50 of `Cc1cc(Cl)cc2c1NC(=O)/C2=N\Nc1ccccc1[N+](=O)[O-]` .
Output line: 54.6 µM (inactive)

Input line: GET /values?readout=GI50&item= `CC(=O)CCCCO`
Output line: > 100 µM (inactive)

Input line: Requested field: GI50. Item: `O=C(C/C(=N/O)C(F)(F)F)c1cccs1`
Output line: > 100 µM (inactive)

Input line: // returns reported GI50 for input `N#Cc1c(-c2ccco2)cc(-c2ccccc2)nc1O`
Output line: > 100 µM (inactive)

Input line: Given the entry COC(=N)C12C(N)=NC(OC)(OC)C1(C#N)C21C(=O)N(c2ccccc2)N=C1C (stereo unspecified) , report its measured GI50.
Output line: > 100 µM (inactive)

Input line: Record request: GI50 value, item `CCOC(=O)C1=C(Nc2cccc3ccccc23)OCC1=O`
Output line: > 100 µM (inactive)

Input line: GI50 lookup needed for Cc1ccc(/S(Cc2ccccc2)=N\S(=O)(=O)c2ccc(C)cc2)cc1 (stereo unspecified) , thanks.
Output line: > 100 µM (inactive)

Input line: Given the entry `O=C(Oc1c(I)ccccc1=O)c1ccc([N+](=O)[O-])cc1` , report its measured GI50.
Output line: 26.9 µM (inactive)

Input line: Given `O=c1c2ccccc2c2ccccc2c(=O)n1-c1cc2c3ccccc3ccc2c2ccccc12` , state its recorded GI50.
Output line: > 100 µM (inactive)

Input line: Which GI50 is listed for N/N=C1\C(=O)N(CCc2ccccc2)C(=O)C1C(=O)NCCc1ccccc1 (stereo unspecified) ?
Output line: > 100 µM (inactive)

Input line: So what does the record say about GI50 for CC(=O)NC1C(Sc2ncn(C3OC(CO)C(O)C(O)C3NC(C)=O)n2)OC(CO)C(O)C1O (stereo unspecified) ?
Output line: > 100 µM (inactive)

Input line: Find the recorded GI50 belonging to `[O-][S+]1Nc2c(Cl)cc(Cl)c3c(Cl)cc(Cl)c(c23)N1` and report it.
Output line: 18.5 µM (inactive)

Input line: Look up GI50 for this compound: COC1/C=C\OC2(C)Oc3c(C)c(O)c4c(O)c(c(CN(C)C)c(O)c4c3C2=O)NC(=O)/C(C)=C\C=C/C(C)C(O)C(C)C(O)C(C)C(OC(C)=O)C1C (stereo unspecified)
Output line: 27.4 µM (inactive)
